Measured Fold enrichment over AAV9 in the spinal cord of NHPs of individual entries
# System: brain, spinal cord, and DRG of the NHPs
# METHOD_NOTES: NGS fold enrichment of synthetic library (passage 3) in NHPs, first cross-species screen
# Format: in vivo, cynomolgus macaques (Macaca fascicularis)
# RUN_CONDITIONS: synthetic library passage 3, intravenous, RNA NGS, spinal cord of NHPs, relative to wild-type AAV9
Please state the figure in fold; there is no need to write the unit.

Completed entries (count: 3):
| BIOSEQUENCE | TARGET_ENTITY | RECORDED_NUMBER |
| --- | --- | --- |
| GSGMPIRNVQNQQT | brain, spinal cord, and DRG of the NHPs | 0.138 |
| GSGQNQQTSGVLTL | brain, spinal cord, and DRG of the NHPs | 0.000 |
| GSDQNQQTMSSTRT | brain, spinal cord, and DRG of the NHPs | 2.428 |

Below: the item to evaluate.
Value (Fold enrichment over AAV9 in the spinal cord of NHPs, brain, spinal cord, and DRG of the NHPs) for record GLRLSTPSGQNQQT = 4.334

----------
# System: brains, heart, liver, muscle, and DRG of the NHPs
# METHOD_NOTES: Maturation of TTM-001 and TTM-002 capsids, NGS enrichment in NHP tissues
# Format: in vivo
# RUN_CONDITIONS: NHP DRG; NGS; relative to AAV9 control
READOUT_LABEL: Fold Enrichment relative to AAV9, DRG (NHP) (fold)
Please state the figure in fold; there is no need to write the unit.

Completed entries (count: 5):
| BIOSEQUENCE | TARGET_ENTITY | RECORDED_NUMBER |
| --- | --- | --- |
| KTINGSGSPHSKAFYRQT | brains, heart, liver, muscle, and DRG of the NHPs | 0.000 |
| KTINGSGSPHCPAQNQQT | brains, heart, liver, muscle, and DRG of the NHPs | 0.000 |
| KTINGSGSPHSKMICQQT | brains, heart, liver, muscle, and DRG of the NHPs | 0.000 |
| KTINGSSSPHRCAQNQQT (peptide inserted in AAV capsid) | brains, heart, liver, muscle, and DRG of the NHPs | 0.000 |
| KTIKRYGSPHSKAQNQQT | brains, heart, liver, muscle, and DRG of the NHPs | 0.000 |

Quick note, Fold Enrichment relative to AAV9, DRG (NHP) for KTINGSGSPHSKCFLQQT landed at 0.000

Quick note, Fold Enrichment relative to AAV9, DRG (NHP) for KTINGSGSPHSKRKRQQT landed at 0.000

Quick note, Fold Enrichment relative to AAV9, DRG (NHP) for KTINGSGSPHSKPKRQQT landed at 0.000

Quick note, Fold Enrichment relative to AAV9, DRG (NHP) for KTINALRSPHSKAQNQQT landed at 0.000

Quick note, Fold Enrichment relative to AAV9, DRG (NHP) for KTMQRSGSPHSKAQNQQT landed at 0.000

Quick note, Fold Enrichment relative to AAV9, DRG (NHP) for KTINGSRSPHAWAQNQQT (peptide inserted in AAV capsid) landed at 0.000

----------
# Tested on: brains, heart, liver, muscle, and DRG of the NHPs
# METHOD_NOTES: Maturation of TTM-001 and TTM-002 capsids, NGS enrichment in NHP tissues
# Format: in vivo
# RUN_CONDITIONS: NGS fold-enrichment of RNA, NHP brain, relative to AAV9 control
READOUT_LABEL: Fold Enrichment relative to AAV9, Brain (NHP) (fold)
Please state the figure in fold; there is no need to write the unit.

| BIOSEQUENCE | UNIT | RECORDED_NUMBER |
| --- | --- | --- |
| KTIKGQDSPHKIGQNQQT | fold | 110.357 |
| KTINGPDSPHKIGQNQQS | fold | 85.726 |
| KTERNSGSPHSKAQNQQT | fold | 99.892 |

Below: the item to evaluate.
Quick note, Fold Enrichment relative to AAV9, Brain (NHP) for KAINGPDSPHKSGQKQQT landed at 78.213
